Tested on: A549 cells
Experiment: MTT cytotoxicity assay, A549
Format: cell-based, human
Settings: Homo sapiens; A549, 100 μΜ, 24 h; read-out: Cell Toxicity A549 % (100 μΜ)
quantity kind: cytotoxicity at 100 µM

Solved entries (count: 3):
Cc1c(-c2cccc(F)c2)c(=O)oc2cccc(O)c12 = 52.3%
CC(=O)Oc1cccc2oc(=O)c(-c3ccccc3F)c(C)c12 = 7.5%
Cc1c(-c2ccccc2Cl)c(=O)oc2cccc(O)c12 = 64.7%

Task: Please report the recorded cytotoxicity at 100 µM for "CC(=O)Oc1cccc2oc(=O)c(-c3cccc(Cl)c3)c(C)c12" .
Output: 24.6%
